target: Hsa NCOA2 CID (TIF2) (human); assay: ITC; iTC200, 25°C, 20 mM sodium phosphate, pH 7.4, 150 mM NaCl; both partners dialysed against the same buffer
Can you tell me pKd for the items I'm about to list?
Numbers only, as −log10 of the molar value.

binder	pKd
IPPNALQDLLRTLRSPSSPQQQQQVLNILKSNPQLMAAFIKQRAAKYQ (domain or fragment, modifications not checked) [1R/2R NCBD]	7.35

Continue with the next binder.
## Input Record request: pKd value, item ITPGALQDLLRTLKSPSSPQQQQQVLNILKSNPHLMAAFIKQRTAKYQ (domain or fragment, modifications not checked) [Dre CREBBP NCBD]
## Output 6.64
